- System: MDRPA
- method.description: MIC determination, microdilution broth method
- condition: 20 MDRPAs; EA = 60% ethanol extract
Measured MIC90, listed per entry.
All answers are understood in µg/mL, so give the number only.

Known results for compounds:
CCN1CCN(C(=O)N[C@@H](C(=O)N[C@@H]2C(=O)N3C(C(=O)O)=C(CSc4nnnn4C)CS[C@H]23)c2ccc(O)cc2)C(=O)C1=O [CFP, Cefoperazone]: 512
NCC[C@H](O)C(=O)N[C@@H]1C[C@H](N)[C@@H](O[C@H]2O[C@H](CN)[C@@H](O)[C@H](O)[C@H]2O)[C@H](O)[C@H]1O[C@H]1O[C@H](CO)[C@@H](O)[C@H](N)[C@H]1O [AMK, Amikacin]: 32
C[C@@H](O)[C@H]1C(=O)N2C(C(=O)O)=C(SCCN=CN)C[C@H]12 [IMP, imipenem]: 64

The compound listed as CC(C)(O/N=C(\C(=O)N[C@@H]1C(=O)N2C(C(=O)[O-])=C(C[n+]3ccccc3)CS[C@H]12)c1csc(N)n1)C(=O)O [CAZ, Ceftazidime] has a reported MIC90 of 256

What the record says about C[C@H]1COc2c(N3CCN(C)CC3)c(F)cc3c(=O)c(C(=O)O)cn1c23 [LVX, Levofloxacin] : MIC90 is 32

###

Each entry below carries its recorded MIC50.
- Test system: MDRPA
- method.description: MIC determination, microdilution broth method;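 also: broth microdilution per NCCLS recommendations, testing Pithecellobium clypearia water or ethanol extracts against multidrug-resistant Pseudomonas aeruginosa, with MIC50 and MIC90 derived statistically from individual MICs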
- condition: 20 MDRPAs; EA = 95% ethanol extract
Answer with a number only, understood to be in µg/mL.

Please review the following examples before continuing.
CC(C)(O/N=C(\C(=O)N[C@@H]1C(=O)N2C(C(=O)[O-])=C(C[n+]3ccccc3)CS[C@H]12)c1csc(N)n1)C(=O)O: 32
CCN1CCN(C(=O)N[C@@H](C(=O)N[C@@H]2C(=O)N3C(C(=O)O)=C(CSc4nnnn4C)CS[C@H]23)c2ccc(O)cc2)C(=O)C1=O: 64
C[C@@H](O)[C@H]1C(=O)N2C(C(=O)O)=C(SCCN=CN)C[C@H]12: 32

Record C[C@H]1COc2c(N3CCN(C)CC3)c(F)cc3c(=O)c(C(=O)O)cn1c23 , field MIC50: 4

Entry NCC[C@H](O)C(=O)N[C@@H]1C[C@H](N)[C@@H](O[C@H]2O[C@H](CN)[C@@H](O)[C@H](O)[C@H]2O)[C@H](O)[C@H]1O[C@H]1O[C@H](CO)[C@@H](O)[C@H](N)[C@H]1O , MIC50 reported as 1

###

// values below are reported MIC
- System: ATCC27853
- method.description: MIC determination, control strain
- Format: cell-based
- condition: single use, EA = 60% ethanol extract, read-out: MIC
Give the value in µg/mL but do not write µg/mL after it.

NCC[C@H](O)C(=O)N[C@@H]1C[C@H](N)[C@@H](O[C@H]2O[C@H](CN)[C@@H](O)[C@H](O)[C@H]2O)[C@H](O)[C@H]1O[C@H]1O[C@H](CO)[C@@H](O)[C@H](N)[C@H]1O: 2
C[C@H]1COc2c(N3CCN(C)CC3)c(F)cc3c(=O)c(C(=O)O)cn1c23: 1
CCN1CCN(C(=O)N[C@@H](C(=O)N[C@@H]2C(=O)N3C(C(=O)O)=C(CSc4nnnn4C)CS[C@H]23)c2ccc(O)cc2)C(=O)C1=O: 8
CC(C)(O/N=C(\C(=O)N[C@@H]1C(=O)N2C(C(=O)[O-])=C(C[n+]3ccccc3)CS[C@H]12)c1csc(N)n1)C(=O)O: 4

The reported MIC of the compound C[C@@H](O)[C@H]1C(=O)N2C(C(=O)O)=C(SCCN=CN)C[C@H]12 was 4

Cited source: patent US11793849B2
